Biological target: Dihydropteroate synthase (Bacteria)
Sequence (P0AC13 whole entry): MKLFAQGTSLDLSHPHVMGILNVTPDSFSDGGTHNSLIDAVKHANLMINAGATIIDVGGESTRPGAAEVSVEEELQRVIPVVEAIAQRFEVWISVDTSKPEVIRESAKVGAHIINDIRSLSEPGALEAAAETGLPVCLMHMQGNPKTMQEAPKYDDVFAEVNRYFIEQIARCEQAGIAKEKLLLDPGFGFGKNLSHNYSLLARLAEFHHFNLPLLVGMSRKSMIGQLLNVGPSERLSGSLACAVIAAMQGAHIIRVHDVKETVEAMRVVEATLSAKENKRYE
recorded-metric: pKd
As a rule, pKd stands for the negative log10 of the concentration, concentration in M.

Endpoint output: pKd of COc1ccc(C(=O)CSc2nc3nc(N)[nH]c(=O)c3[nH]2)cc1 . Value?
5.41

Endpoint output: pKd of Nc1nc2[nH]c(SCC(=O)c3ccc(-c4ccccc4)cc3)nc2c(=O)[nH]1 . Value?
5.08

Endpoint output: pKd of Nc1nc2nc(SCC(=O)c3ccccc3)[nH]c2c(=O)[nH]1 . Value?
5.41

* * *

target: 2-amino-4-hydroxy-6-hydroxymethyldihydropteridin e pyrophosphokinase (Staphylococcus aureus); test: Binding affinity to Staphylococcus aureus recombinant HPPK by surface plasmon resonance analysis in presence of ATP
Sequence (X5EH84 whole entry): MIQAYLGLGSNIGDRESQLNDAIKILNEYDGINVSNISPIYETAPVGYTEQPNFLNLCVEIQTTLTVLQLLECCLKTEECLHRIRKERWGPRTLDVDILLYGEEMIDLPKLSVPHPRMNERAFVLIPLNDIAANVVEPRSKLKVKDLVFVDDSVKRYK
recorded-metric: pKd
As a rule, pKd stands for the negative log10 of the concentration, concentration in M.

Endpoint output: pKd of COc1ccccc1C(=O)CSc1nc2nc(N)[nH]c(=O)c2[nH]1 . Value?
5.55

Endpoint output: pKd of Nc1nc2[nH]c(SCc3ccccc3C(F)(F)F)nc2c(=O)[nH]1 . Value?
5.55

Endpoint output: pKd of Nc1nc2nc(SCC(=O)c3ccccc3)[nH]c2c(=O)[nH]1 . Value?
5.85

Endpoint output: pKd of COc1ccc(CCSc2nc3c(=O)[nH]c(N)nc3[nH]2)cc1 . Value?
5.11

Endpoint output: pKd of Nc1nc2[nH]c(SCc3ccccc3)nc2c(=O)[nH]1 . Value?
5.75

Endpoint output: pKd of N#Cc1ccc(CSc2nc3nc(N)[nH]c(=O)c3[nH]2)cc1 . Value?
6.18

Endpoint output: pKd of COc1ccc(C(=O)CSc2nc3nc(N)[nH]c(=O)c3[nH]2)cc1 . Value?
5.96

Endpoint output: pKd of Nc1nc2[nH]c(S)nc2c(=O)[nH]1 . Value?
4.90

Endpoint output: pKd of CC(Sc1nc2nc(N)[nH]c(=O)c2[nH]1)C(=O)c1ccccc1 (configuration not stated) . Value?
5.74

Endpoint output: pKd of Nc1nc2[nH]c(SCc3ccccc3F)nc2c(=O)[nH]1 . Value?
6.35

Endpoint output: pKd of CC(=O)CSc1nc2c(=O)[nH]c(N)nc2[nH]1 . Value?
5.73

Endpoint output: pKd of Nc1nc2[nH]c(SCC(=O)c3ccc(-c4ccccc4)cc3)nc2c(=O)[nH]1 . Value?
6.09
